Data provenance: ChEMBL document CHEMBL5291721

Record: AC50 reported on Beta-2 adrenergic receptor (Homo sapiens, UniProt P07550).
Sequence (P07550 whole entry): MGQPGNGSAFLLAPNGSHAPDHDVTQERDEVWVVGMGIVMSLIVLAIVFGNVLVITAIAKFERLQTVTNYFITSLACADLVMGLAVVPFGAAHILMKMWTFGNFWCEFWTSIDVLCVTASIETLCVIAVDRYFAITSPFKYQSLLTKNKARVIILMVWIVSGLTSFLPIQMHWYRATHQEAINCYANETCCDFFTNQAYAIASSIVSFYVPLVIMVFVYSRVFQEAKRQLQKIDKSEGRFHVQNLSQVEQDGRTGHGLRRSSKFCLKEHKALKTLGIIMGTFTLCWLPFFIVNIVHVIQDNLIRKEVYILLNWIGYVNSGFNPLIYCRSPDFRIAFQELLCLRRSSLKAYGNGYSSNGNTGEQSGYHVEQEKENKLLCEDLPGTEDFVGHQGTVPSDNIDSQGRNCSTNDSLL

compound: NC[C@H]1O[C@H](O[C@H]2[C@H](O)[C@@H](O[C@H]3O[C@H](CO)[C@@H](O)[C@H](N)[C@H]3O)[C@H](N)C[C@@H]2N)[C@H](O)[C@@H](O)[C@@H]1O [KANAMYCIN]
target-under-test: Beta-2 adrenergic receptor (Homo sapiens, UniProt P07550); note: assay procedure not described here
AC50: > 10 µM

Exercise: If you can, please state the reported AC50 value of CC(=O)N(CC(O)CO)c1c(I)c(C(=O)NCC(O)CO)c(I)c(C(=O)NCC(O)CO)c1I (centres undefined) [IOHEXOL] .
Solution: > 30 µM

Exercise: Same read-out for NC(=O)C[S+]([O-])C(c1ccccc1)c1ccccc1 (centres undefined) [MODAFINIL] ?
Solution: > 10 µM

Exercise: Consider next the compound COc1ccccc1OCC(O)COC(N)=O (centres undefined) [METHOCARBAMOL] in the same way.
Solution: > 10 µM

---

# target-under-test: 3',5'-cyclic-AMP phosphodiesterase 4D (Homo sapiens, UniProt Q08499); note: assay procedure not described here
# Sequence (Q08499 whole entry): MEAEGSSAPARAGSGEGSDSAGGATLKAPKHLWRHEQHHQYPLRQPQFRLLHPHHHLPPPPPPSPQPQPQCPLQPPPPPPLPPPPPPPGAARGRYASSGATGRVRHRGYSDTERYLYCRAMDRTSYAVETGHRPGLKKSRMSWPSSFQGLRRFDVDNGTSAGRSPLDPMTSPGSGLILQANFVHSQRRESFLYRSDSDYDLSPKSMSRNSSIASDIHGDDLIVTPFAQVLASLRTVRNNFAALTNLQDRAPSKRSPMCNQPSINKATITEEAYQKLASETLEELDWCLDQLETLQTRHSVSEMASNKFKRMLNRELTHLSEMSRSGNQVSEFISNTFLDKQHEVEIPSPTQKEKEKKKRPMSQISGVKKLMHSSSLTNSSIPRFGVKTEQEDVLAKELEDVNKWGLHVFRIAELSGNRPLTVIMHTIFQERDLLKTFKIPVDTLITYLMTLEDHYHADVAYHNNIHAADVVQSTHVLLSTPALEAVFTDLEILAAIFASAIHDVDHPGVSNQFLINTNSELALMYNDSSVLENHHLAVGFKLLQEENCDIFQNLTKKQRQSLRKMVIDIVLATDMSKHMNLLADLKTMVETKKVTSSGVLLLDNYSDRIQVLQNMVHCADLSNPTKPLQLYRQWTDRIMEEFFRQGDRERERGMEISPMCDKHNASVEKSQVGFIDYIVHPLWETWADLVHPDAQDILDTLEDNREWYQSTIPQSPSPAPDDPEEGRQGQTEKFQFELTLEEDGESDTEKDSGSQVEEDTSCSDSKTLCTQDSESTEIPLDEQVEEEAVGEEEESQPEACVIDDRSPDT
# Assay type: functional
Each record here notes measured AC50.

Example cases with answers are listed next.
molecule: COc1c(C)c2c(c(O)c1C/C=C(\C)CCC(=O)OCCN1CCOCC1)C(=O)OC2 [MYCOPHENOLATE MOFETIL]
quantity-measured: AC50
measured: > 30 µM
//
molecule: CC(C)NNC(=O)c1ccncc1
quantity-measured: AC50
measured: > 30 µM

We next turn to a different molecule, shown below.
Exercise: Fill in: AC50 of COc1ccc2cccc(CCNC(C)=O)c2c1 is ___
Solution: > 30 µM

---

Entries with their measured AC50, system Sodium-dependent dopamine transporter (Homo sapiens, UniProt Q01959):

Examples with their reported AC50 follow.
molecule: C#C[C@]1(O)CC[C@H]2[C@@H]3CCC4=CCCC[C@@H]4[C@H]3CC[C@@]21C
AC50: > 30 µM

molecule: NS(=O)(=O)c1cc(Cl)c(Cl)c(S(N)(=O)=O)c1 [DICHLORPHENAMIDE]
AC50: > 10 µM

molecule: NC(=O)c1ncn([C@@H]2O[C@H](CO)[C@@H](O)[C@H]2O)c1O
AC50: > 30 µM

molecule: CC(C(O)c1ccc(O)cc1)N1CCC(Cc2ccccc2)CC1 (centres undefined)
AC50: 1.2 µM

molecule: O=C(O)CCn1c2c(c3ccccc31)C[C@H](NS(=O)(=O)c1ccc(F)cc1)CC2
AC50: > 30 µM

Exercise: What measured AC50 goes with CCC(C(=O)O)c1ccc(CC(C)C)cc1 (centres undefined) ?
Solution: > 30 µM

Exercise: Repeat with Nc1nc2ccc(OC(F)(F)F)cc2s1
Solution: > 30 µM

Exercise: # repeat for Cc1cccc(C)c1NC(=O)C1CCCCN1C (centres undefined) [MEPIVACAINE]
Solution: > 30 µM

Exercise: Same read-out for Cc1c(O)c(=O)ccn1C ?
Solution: > 30 µM

Exercise: Item: CC(C)(Oc1ccc(C2CC2(Cl)Cl)cc1)C(=O)O (centres undefined) [CIPROFIBRATE]
Solution: > 30 µM

Exercise: How about CN1CC(=O)N2[C@H](c3ccc4c(c3)OCO4)c3[nH]c4ccccc4c3C[C@@H]2C1=O ?
Solution: > 30 µM

Exercise: What about CC(C)C(=O)OCC(=O)[C@@]12O[C@H](C3CCCCC3)O[C@@H]1C[C@H]1[C@@H]3CCC4=CC(=O)C=C[C@]4(C)[C@H]3[C@@H](O)C[C@@]12C [CICLESONIDE] ?
Solution: > 10 µM

Exercise: What do you get for CN1C(=O)CC(C)(c2ccccc2)C1=O (centres undefined) [METHSUXIMIDE] ?
Solution: > 10 µM

Exercise: Now try NS(=O)(=O)c1cc2c(cc1Cl)NCNS2(=O)=O [HYDROCHLOROTHIAZIDE] .
Solution: > 10 µM

---

# target-under-test: Adenosine receptor A3 (Homo sapiens); note: assay procedure not described here
# Sequence (P0DMS8 whole entry): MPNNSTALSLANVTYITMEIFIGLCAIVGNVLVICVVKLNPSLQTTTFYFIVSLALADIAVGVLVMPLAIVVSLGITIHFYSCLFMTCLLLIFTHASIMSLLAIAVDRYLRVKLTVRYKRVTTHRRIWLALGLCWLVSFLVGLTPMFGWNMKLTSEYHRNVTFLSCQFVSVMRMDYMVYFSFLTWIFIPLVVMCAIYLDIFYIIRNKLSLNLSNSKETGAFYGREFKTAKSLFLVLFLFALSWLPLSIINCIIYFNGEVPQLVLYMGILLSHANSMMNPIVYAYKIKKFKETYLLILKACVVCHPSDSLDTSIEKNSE
quantity-measured: AC50

molecule: COc1cc2c(cc1OC)[C@H]1C[C@@H](OC(=O)[C@@H](N)C(C)C)[C@H](CC(C)C)CN1CC2
AC50: > 30 µM

Exercise: May I ask what AC50 has been recorded for Cc1ccc(O)c2ncccc12 ?
Solution: > 30 µM

Exercise: CCOC(=O)c1ccc(O)cc1 ?
Solution: > 30 µM

Exercise: Similarly, C[N+]1(C)[C@@H]2C[C@@H](OC(=O)[C@H](CO)c3ccccc3)C[C@H]1[C@@H]1O[C@@H]12 ?
Solution: > 30 µM

Exercise: Try O=C1c2c(O)c(=O)ccn2N([C@@H]2c3ccccc3SCc3c2ccc(F)c3F)[C@@H]2COCCN12 next.
Solution: > 30 µM

Exercise: Repeat for the following molecule: C[C@@H]1O[C@@H](OC[C@H]2O[C@@H](Oc3c(-c4ccc(OCCO)c(OCCO)c4)oc4cc(OCCO)cc(O)c4c3=O)[C@H](O)[C@@H](O)[C@@H]2O)[C@H](O)[C@H](O)[C@H]1O
Solution: 7.52 µM

Exercise: Note, next up: COc1ccc2c(c1)OC(C)(C)C(c1ccccc1)C2c1ccc(OCCN2CCCC2)cc1 (stereo not drawn)
Solution: 3.66 µM

Exercise: And CC/C=C\C/C=C\C/C=C\C/C=C\C/C=C\CCCC(=O)O ?
Solution: 25.3 µM

---

Target or system Kappa-type opioid receptor (Homo sapiens); recorded quantity AC50. Note: assay procedure not described here.

Below are worked cases with known answers.
molecule: CC(C)NCC1CCc2cc(CO)c([N+](=O)[O-])cc2N1 (stereo not given)
measured: 13.4 µM
//
molecule: Cc1c(Cl)cccc1Nc1ccccc1C(=O)O
measured: > 30 µM
//
molecule: O=C(C[S+]([O-])C(c1ccccc1)c1ccccc1)NO (stereo not given)
measured: > 30 µM
//
molecule: CC(=O)O[C@@]12CO[C@@H]1C[C@H](O)[C@@]1(C)C(=O)[C@H](O)C3=C(C)[C@@H](OC(=O)[C@H](O)[C@@H](NC(=O)OC(C)(C)C)c4ccccc4)C[C@@](O)([C@@H](OC(=O)c4ccccc4)[C@H]21)C3(C)C [DOCETAXEL ANHYDROUS]
measured: > 30 µM

For the next question, use this molecule.
Exercise: Fill blank: measured AC50 of the molecule CN(CCOc1ccc(NS(C)(=O)=O)cc1)CCc1ccc(NS(C)(=O)=O)cc1 [DOFETILIDE] is ____.
Solution: > 10 µM

---

# target-under-test: Muscarinic acetylcholine receptor M1 (Homo sapiens, UniProt P11229); note: assay procedure not described here
# Sequence (P11229 whole entry): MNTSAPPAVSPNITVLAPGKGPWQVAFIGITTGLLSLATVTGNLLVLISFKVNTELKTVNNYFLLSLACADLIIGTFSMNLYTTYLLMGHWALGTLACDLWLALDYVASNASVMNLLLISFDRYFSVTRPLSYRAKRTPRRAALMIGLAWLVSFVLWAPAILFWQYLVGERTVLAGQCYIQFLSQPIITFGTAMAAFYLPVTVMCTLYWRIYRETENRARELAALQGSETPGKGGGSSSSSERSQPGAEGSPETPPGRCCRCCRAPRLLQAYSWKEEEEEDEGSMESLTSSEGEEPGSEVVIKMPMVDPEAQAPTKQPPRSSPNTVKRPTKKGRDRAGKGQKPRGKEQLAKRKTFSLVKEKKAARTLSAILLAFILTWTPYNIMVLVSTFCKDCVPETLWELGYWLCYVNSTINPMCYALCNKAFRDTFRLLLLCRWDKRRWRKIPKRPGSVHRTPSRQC
# Assay type: functional
quantity-measured: AC50

compound: CN1CC[C@]23CCCC[C@H]2[C@H]1Cc1ccc(O)cc13 [LEVORPHANOL]
AC50: > 30 µM

Exercise: Entry CC(C)[N+](C)(CCC(C(N)=O)(c1ccccc1)c1ccccc1)C(C)C [ISOPROPAMIDE] , system Muscarinic acetylcholine receptor M1 (Homo sapiens, UniProt P11229): what AC50 was measured?; note: assay procedure not described here
Solution: 0.013 µM

Exercise: Now consider CCC(C(=O)O)c1ccc(CC(C)C)cc1 (configuration not stated) [BUTIBUFEN] .
Solution: > 30 µM

Exercise: // repeat for CC(C)NCC(O)COc1ccc(COCCOC(C)C)cc1 (configuration not stated) [BISOPROLOL] and report
Solution: > 10 µM

Exercise: Try this compound too: CCCCOc1cc(C(=O)NCCN(CC)CC)c2ccccc2n1 [DIBUCAINE]
Solution: > 10 µM

Exercise: Ok, now O=C(Cn1ccnc1[N+](=O)[O-])NCc1ccccc1 [BENZNIDAZOLE]
Solution: > 30 µM

Exercise: Entry to check: OCCN1CCN(CCCN2c3ccccc3C=Cc3ccccc32)CC1 [OPIPRAMOL]
Solution: > 30 µM

Exercise: // next record CC(Cc1ccccc1)NCCC(c1ccccc1)c1ccccc1 (configuration not stated) [PRENYLAMINE]
Solution: > 10 µM

Exercise: And C#CCN[C@@H]1CCc2ccccc21 [RASAGILINE] ?
Solution: > 30 µM

Exercise: Again, but for O=C1NCCN1CCN1CCC(c2cn(-c3ccc(F)cc3)c3ccc(Cl)cc23)CC1 [SERTINDOLE]
Solution: 5 µM

Exercise: Cool, now CCOc1cc(N)c([N+](=O)[O-])cc1C(=O)NC1CCN(CC2CC=CCC2)CC1 (configuration not stated) [CINITAPRIDE]
Solution: 14 µM

Exercise: Again, but for CCC1(C2=CCCCCC2)C(=O)NC(=O)NC1=O [HEPTABARBITAL]
Solution: > 10 µM

Exercise: Another compound to check: C#CC1(OC(N)=O)CCCCC1 [ETHINAMATE]
Solution: > 10 µM

Exercise: # iterate: [H]/N=C(/N)c1ccc(NCc2nc3cc(C(=O)N(CCC(=O)O)c4ccccn4)ccc3n2C)cc1 [DABIGATRAN]
Solution: > 30 µM
